Give Vmax for every item shown.
organism: Rattus norvegicus; experiment: Maximum velocity was determined for rat liver DT diaphorase substrate activity; format: functional
Answers are plain numbers, in nM/s.

Past entries and their recorded results:
Find the recorded Vmax belonging to "CCCCC1=C(NC(C)=O)C(=O)c2nc3n(c2C1=O)CCC3" and report it.
18.1

Note, next up: "CC(=O)NC1=C(C)C(=O)c2c(nc3n2CC[C@@H]3OC(C)=O)C1=O"
20.4

Also, COCC(=O)OC1CCn2c1nc1c2C(=O)C(C)=C(NC(C)=O)C1=O (racemic) please.
9.8

Consider the additional compound presented here.
Quick check: Vmax of "COCC(=O)O[C@H]1CCn2c1nc1c2C(=O)C(C)=C(NC(C)=O)C1=O" ?
28.2
